B1: Homeobox protein cut-like 1, residues 941 to 1008; numbered along this chain, P39880 (parent)
chain: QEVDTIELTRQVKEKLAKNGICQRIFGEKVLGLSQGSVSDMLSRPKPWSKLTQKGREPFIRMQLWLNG

Variants of: B1
procedure-details: abundance fitness (aPCA) (normalised: wild type 0, dead -1); higher = more abundant; growth selection in yeast, the domain comes from the species named
run-parameters: Homo sapiens
Below, each of the variants is paired with its reported abundance fitness value.
readout-label: abundance fitness

                                       chain   value
 0  QEVDTIELTRQVKEKLAKNGIGQRIFGEKVLGLSQGSVSDMLSRPKPWSKLTQKGREPFIRMQLWLNG [C22G]   -0.27
 1  FEVDTIELTRQVKEKLAKNGICQRIFGEKVLGLSQGSVSDMLSRPKPWSKLTQKGREPFIRMQLWLNG [Q1F]  -0.088
 2  QEVDTIELTRQVKEKLAKNGICQRIFGEKVLGLSQGSVPDMLSRPKPWSKLTQKGREPFIRMQLWLNG [S39P]  -0.126
 3  QEVDTIELTRQVKEKLAKNGICQRIFGEKVLGLSQGSVSDMLSFPKPWSKLTQKGREPFIRMQLWLNG [R44F]  -0.041
 4  QEVDTIELTRQVKEKLAKNGICQSIFGEKVLGLSQGSVSDMLSRPKPWSKLTQKGREPFIRMQLWLNG [R24S]  -0.136
 5  QEVDTIELTRQVKEKLAKNGICQRIFGEKVLGLSQGSVSDMLSRPKPWSALTQKGREPFIRMQLWLNG [K50A]  -0.098
 6  QEVDTIELTRQVKEKLAKNGICQRIFGEKVLGLSQGSVSDMLSRHKPWSKLTQKGREPFIRMQLWLNG [P45H]  -0.124
 7  QEVDTIELTRQVKEKLAKNGIPQRIFGEKVLGLSQGSVSDMLSRPKPWSKLTQKGREPFIRMQLWLNG [C22P]  -0.069
 8  QEVDTIELTRQVKEKLAKNGIEQRIFGEKVLGLSQGSVSDMLSRPKPWSKLTQKGREPFIRMQLWLNG [C22E]  -0.155
 9  QEVDTIELTWQVKEKLAKNGICQRIFGEKVLGLSQGSVSDMLSRPKPWSKLTQKGREPFIRMQLWLNG [R10W]  -0.509
10  QEVDTIELTRQVKEKLAKNGICQRIFGEKVDGLSQGSVSDMLSRPKPWSKLTQKGREPFIRMQLWLNG [L31D]  -0.425
11  QEVDTIELTRQVKEKLAKNGICQRIFGEKVLGLSQGSVSDMLSRPAPWSKLTQKGREPFIRMQLWLNG [K46A]  -0.075
12  QEVDTIELTRQVKEKLAKNWICQRIFGEKVLGLSQGSVSDMLSRPKPWSKLTQKGREPFIRMQLWLNG [G20W]  -0.287
13  PEVDTIELTRQVKEKLAKNGICQRIFGEKVLGLSQGSVSDMLSRPKPWSKLTQKGREPFIRMQLWLNG [Q1P]  -0.277
14  QEVDTIELTRQVKEKLAKNGICQRIFGEKVLGLSQTSVSDMLSRPKPWSKLTQKGREPFIRMQLWLNG [G36T]   0.003
15  QEVDTIELTRQVKEKLAKNGICQEIFGEKVLGLSQGSVSDMLSRPKPWSKLTQKGREPFIRMQLWLNG [R24E]   0.109
16  QEVDTIELTRQVKEKLAKNGICQRIFGEKVLGLSQGSVSDMLRRPKPWSKLTQKGREPFIRMQLWLNG [S43R]  -0.125
17  QEVDTIELTRQVKEKLAKNGICQRIFGEKVLGLSQGSVIDMLSRPKPWSKLTQKGREPFIRMQLWLNG [S39I]   0.037
18  QEVDTIELTRQVKEKLAKNGICQRIFGEKVLGLSQGSVSDMLSRPYPWSKLTQKGREPFIRMQLWLNG [K46Y]  -0.059

Entry source: the Human Domainome abundance scans (Beltran et al. 2025)
